Biological target: Isopentenyl-diphosphate Delta-isomerase (Escherichia coli (strain K12))
Sequence (Q46822 whole entry): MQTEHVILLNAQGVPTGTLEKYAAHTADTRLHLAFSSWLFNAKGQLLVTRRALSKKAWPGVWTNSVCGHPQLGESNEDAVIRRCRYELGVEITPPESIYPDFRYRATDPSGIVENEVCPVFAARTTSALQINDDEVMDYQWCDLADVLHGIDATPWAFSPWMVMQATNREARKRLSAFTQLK
Experiment: Competitive inhibition of Escherichia coli IPP isomerase assessed as inhibition constant by Lineweaver-burk plot analysis
Reported property: Ki (nM)
Number only, in nM; omit the unit.

Measured on Isopentenyl-diphosphate Delta-isomerase (Escherichia coli (strain K12)), N=C(N)NCCP(=O)(O)CP(=O)(O)O has a documented Ki of 129

Every entry's value here was drawn from ChEMBL document CHEMBL5223115.
